All figures here come from patent US20090018163A1.

# study_target: NK-1 (Homo sapiens, UniProt P25103)
# Construct: 30 ul/well of a 2×U373 membrane preparation; endogenous in cells; host or cells: U373 cells (crude membrane preparation)
# Sequence (P25103 whole entry): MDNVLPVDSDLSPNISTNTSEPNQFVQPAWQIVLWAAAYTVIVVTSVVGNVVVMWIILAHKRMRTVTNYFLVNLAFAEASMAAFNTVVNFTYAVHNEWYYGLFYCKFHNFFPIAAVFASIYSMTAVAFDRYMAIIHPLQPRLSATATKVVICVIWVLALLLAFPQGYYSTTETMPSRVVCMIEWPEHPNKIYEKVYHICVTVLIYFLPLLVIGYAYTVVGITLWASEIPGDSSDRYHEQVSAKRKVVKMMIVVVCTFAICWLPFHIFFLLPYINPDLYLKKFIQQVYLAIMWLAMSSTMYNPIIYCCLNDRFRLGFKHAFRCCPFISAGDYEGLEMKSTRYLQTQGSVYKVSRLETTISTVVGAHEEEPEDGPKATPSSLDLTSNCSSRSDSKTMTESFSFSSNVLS
# test_description: NK1 radioligand binding assay
# assay_conditions: U373 membrane preparation, [125I]Substance P; Table 1
pIC50: −log10 of the molar value.
reported_metric: pIC50

>>> result("Cc1cc(COCC2(c3ccccc3)CCN(C)CC2)c2ncccc2c1")
"7.00 to 11.00"
>>> result("Cc1cc(C(C)OCC2(c3ccc(F)cc3)CCN(C)CC2)c2nc(N(C)C)ccc2c1 (stereo not shown)")
"7.00 to 11.00"
>>> result("CNc1cc(COCC2(c3ccccc3)CCNCC2)nc2cccc(C(F)(F)F)c12")
"< 6.52"
>>> result("N#Cc1ccc(-c2cc(COCC3(c4ccccc4)CCNCC3)c3ncccc3c2)cc1")
"< 6.52"
>>> result("c1ccc(C2(COCc3cccc4cccnc34)CCNCC2)cc1")
"< 6.52"
>>> result("CN(C)c1cc(COCC2(c3ccccc3)CCNCC2)nc2cc(C(F)(F)F)ccc12")
"< 6.52"
>>> result("FC(F)(F)c1ccnc2ccc(COCC3(c4ccccc4)CCNCC3)cc12")
"< 6.52"
>>> result("Cc1cc(C(C)OCC2(c3ccc(F)cc3)CCNCC2)c2ncccc2c1 (stereo not shown)")
"7.00 to 11.00"
>>> result("Cc1cccc2nc(COCC3(c4ccccc4)CCNCC3)cc(C)c12")
"< 6.52"
>>> result("FC(F)(F)c1ccc2c(Cl)cc(COCC3(c4ccccc4)CCNCC3)nc2c1")
"< 6.52"
>>> result("c1ccc(C2(COCc3ccc4ccccc4n3)CCNCC2)cc1")
"< 6.52"
>>> result("Cc1cc(COCC2(c3ccccc3)CCNCC2)c2ccccc2n1")
"< 6.52"
>>> result("CN1CCC(COCc2cc(C(F)(F)F)cc3cccnc23)(c2ccc(F)cc2)CC1")
"7.00 to 11.00"
>>> result("CC(OCC1(c2ccc(F)cc2F)CCN(C)CC1)c1cc(C(F)(F)F)cc2cccnc12 (stereo not shown)")
"7.00 to 11.00"
>>> result("CN1CCC(COCc2ccc3ccccc3n2)(c2ccccc2)CC1")
"< 6.52"
>>> result("Cc1cc(COCC2(c3ccc(F)cc3)CCNCC2)c2ncccc2c1")
"7.00 to 11.00"
>>> result("COc1ccc2nc(COCC3(c4ccccc4)CCNCC3)ccc2c1")
"< 6.52"
>>> result("Cc1cc(COCC2(c3ccc(F)cc3F)CCNCC2)c2ncccc2c1")
"7.00 to 11.00"
>>> result("COc1ccc2nc(COCC3(c4ccccc4)CCN(C)CC3)ccc2c1")
"< 6.52"
